From: the supplement of paper PMC11208160

Test: recombinant barcode read abundance after kanamycin selection (control-corrected) (log10(CPM+1)); higher = more efficient recombination; sequences stand for … in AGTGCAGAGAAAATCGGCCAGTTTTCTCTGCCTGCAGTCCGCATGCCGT…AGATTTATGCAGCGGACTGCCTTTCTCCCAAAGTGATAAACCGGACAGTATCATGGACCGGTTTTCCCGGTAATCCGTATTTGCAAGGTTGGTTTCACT; site = the 11-nt target
Would you mind labelling by recombinant barcode read abundance (log10)? At or over 0.3 is fulfilled, under is not fulfilled.

Known results for sequences:
- CHAIN_SEQUENCE: "CGCCCGCCTTGGGTTCTAACCTGTTGCCT (site TGCCCGCCTAG)"
  ASSIGNED_CATEGORY: "not fulfilled"
- CHAIN_SEQUENCE: "TATAGGACTTGGGTTCTAACCTGTTGCGT (site TATAGGACTAC)"
  ASSIGNED_CATEGORY: "fulfilled"
- CHAIN_SEQUENCE: "AGGAACCCTTGGGTTCTAACCTGTTGCTC (site AGGAACCCTTA)"
  ASSIGNED_CATEGORY: "not fulfilled"
- CHAIN_SEQUENCE: "CGCCCGCCTTGGGTTCTAACCTGTTGCCT (site CGCCCGCCTAG)"
  ASSIGNED_CATEGORY: "not fulfilled"
- CHAIN_SEQUENCE: "ACAAATCCTTGGGTTCTAACCTGTTGCCT (site ACAAATCCTAG)"
  ASSIGNED_CATEGORY: "fulfilled"

## Input State whether the measured recombinant barcode read abundance (log10) reaches 0.3, counting equality as reaching it, for TAGGAGACTTGGGTTCTAACCTGTTGCGT (site TAGGATACTAC)
## Output not fulfilled

## Input Given GGAACTACTTGGGTTCTAACCTGTTGCAC (site TTGCTAGCTCC) , state whether its recombinant barcode read abundance (log10) is at least 0.3.
## Output not fulfilled

## Input Tell me whether recombinant barcode read abundance (log10) is at least 0.3 here: TGCCACCCTTGGGTTCTAACCTGTTGCGT (site TGCCACCCTAC)
## Output fulfilled

## Input Please indicate if the recorded recombinant barcode read abundance (log10) for CAAGTACCTTGGGTTCTAACCTGTTGCCT (site GAAGTACCTAG) meets or exceeds 0.3.
## Output not fulfilled

## Input Decide: is the reported value of recombinant barcode read abundance (log10) for CAAAGGTCTTGGGTTCTAACCTGTTGCTA (site TAAAGGCCTTA) equal to or greater than 0.3?
## Output not fulfilled

###

For each record, write down the corresponding recombinant UMI read abundance (log10).
Test: recombinant UMI read abundance after kanamycin selection (control-corrected) (log10(CPM+1)); higher = more efficient recombination; extreme values may be limits of the assay; sequences stand for … in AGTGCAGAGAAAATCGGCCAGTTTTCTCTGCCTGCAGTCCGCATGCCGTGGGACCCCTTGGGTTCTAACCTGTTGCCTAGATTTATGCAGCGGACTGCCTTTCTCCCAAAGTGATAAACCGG…AGGTTGGTTTCACT; site = the 11-nt donor

These solved cases illustrate the format of a correct answer.
- CHAIN_SEQUENCE: "TACCTGACATGGACCGGTTTTCCCGGTAATCCGTATTTGCT (site TACGTGACTAG)"
  recombinant UMI read abundance (log10): 0
- CHAIN_SEQUENCE: "CACGTACCATGGACCGGTTTTCCCGGTAATCCGTATTTGCA (site CACGTACCTTG)"
  recombinant UMI read abundance (log10): 0
- CHAIN_SEQUENCE: "TAGGAATCATGGACCGGTTTTCCCGGTAATCCGTATTTGTG (site TAGGAATCTCT)"
  recombinant UMI read abundance (log10): 2.59

Batch lookup, recombinant UMI read abundance (log10) per entry.
1. TGTTCCCCATGGACCGGTTTTCCCGGTAATCCGTATTTGAA (site TGTTCCCCTTG)
2. AAATTCCCATGGACCGGTTTTCCCGGTAATCCGTATTTGCT (site CAATTCCCTAG)
3. AGAACTACATGGACCGGTTTTCCCGGTAATCCGTATTTGAC (site AGAACTACTGT)
4. AGTACGTCATGGACCGGTTTTCCCGGTAATCCGTATTTGTT (site TGTACGTCTAA)

## Output
0
0.647
2.15
0.212

###

Test: recombinant barcode read abundance after kanamycin selection (control-corrected) (log10(CPM+1)); higher = more efficient recombination; sequences stand for … in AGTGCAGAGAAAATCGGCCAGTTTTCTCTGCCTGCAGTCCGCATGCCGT…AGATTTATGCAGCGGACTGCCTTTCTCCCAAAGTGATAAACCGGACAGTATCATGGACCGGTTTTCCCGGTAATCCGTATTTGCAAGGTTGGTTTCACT; site = the 11-nt target
Output: class label from recombinant barcode read abundance (log10). Mapping: lowest: < 0.08; middle: ≥ 0.08 and < 0.6; highest: ≥ 0.6

Worked set:
- CHAIN_SEQUENCE: "TTCGAAACTTGGGTTCTAACCTGTTGCGT (site TCCGAGACTAC)"
  ASSIGNED_CATEGORY: "middle"
- CHAIN_SEQUENCE: "GTGCGCTCTTGGGTTCTAACCTGTTGCCG (site GTGCGCTCTCG)"
  ASSIGNED_CATEGORY: "highest"
- CHAIN_SEQUENCE: "GTCGAGTCTTGGGTTCTAACCTGTTGCCT (site GTCGACACTAG)"
  ASSIGNED_CATEGORY: "middle"

Note: attention shifts to another entry.
## Input Class (by measured recombinant barcode read abundance (log10)) for ACGTCAACTTGGGTTCTAACCTGTTGCCT (site ACGTCAACTAG)
## Output lowest

###

Assay: recombinant barcode read abundance after kanamycin selection (control-corrected) (log10(CPM+1)); higher = more efficient recombination; sequences stand for … in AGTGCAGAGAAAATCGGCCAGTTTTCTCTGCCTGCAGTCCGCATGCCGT…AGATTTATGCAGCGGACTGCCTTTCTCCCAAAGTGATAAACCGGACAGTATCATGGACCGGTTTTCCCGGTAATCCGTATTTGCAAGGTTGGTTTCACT; site = the 11-nt target
Class Met: recombinant barcode read abundance (log10) at least 0.4. Class Not met: recombinant barcode read abundance (log10) below 0.4.

The following sequences have reported results that may help.
- CHAIN_SEQUENCE: "CCTAACGCTTGGGTTCTAACCTGTTGCCT (site CCTCGCGCTAG)"
  ASSIGNED_CATEGORY: "Not met"
- CHAIN_SEQUENCE: "GGCACTACTTGGGTTCTAACCTGTTGCCT (site GGCACAACTAG)"
  ASSIGNED_CATEGORY: "Not met"
- CHAIN_SEQUENCE: "AAGCAGTCTTGGGTTCTAACCTGTTGCCT (site AAGCAATCTAG)"
  ASSIGNED_CATEGORY: "Met"
- CHAIN_SEQUENCE: "CTCCGGTCTTGGGTTCTAACCTGTTGCTT (site CACGGGTCTAA)"
  ASSIGNED_CATEGORY: "Not met"

Now consider the entry below.
## Input Is recombinant barcode read abundance (log10) for CCAAGCTCTTGGGTTCTAACCTGTTGCCT (site CCAAGCTCTAG) at or above 0.4?
## Output Met

###

Assay: recombinant UMI read abundance after kanamycin selection (control-corrected) (log10(CPM+1)); higher = more efficient recombination; extreme values may be limits of the assay; sequences stand for … in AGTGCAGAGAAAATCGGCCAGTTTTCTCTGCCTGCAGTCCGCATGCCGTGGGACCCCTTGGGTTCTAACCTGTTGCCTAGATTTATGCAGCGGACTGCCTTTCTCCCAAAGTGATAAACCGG…AGGTTGGTTTCACT; site = the 11-nt donor
PARAMETER_MEASURED: recombinant UMI read abundance (log10)
One number for each entry.

Solved cases (6 shown):
- CHAIN_SEQUENCE: "CGGCATCCATGGACCGGTTTTCCCGGTAATCCGTATTTGTT (site CGGGATCCTAA)"
  ASSAY_RESULT: 0.0034
- CHAIN_SEQUENCE: "TAGCCTTCATGGACCGGTTTTCCCGGTAATCCGTATTTGGC (site TAGCCTTCTTC)"
  ASSAY_RESULT: 0.0129
- CHAIN_SEQUENCE: "CGGCGTACATGGACCGGTTTTCCCGGTAATCCGTATTTGCT (site CGGCGTACTAG)"
  ASSAY_RESULT: 2.38
- CHAIN_SEQUENCE: "GGCCCAACATGGACCGGTTTTCCCGGTAATCCGTATTTGTA (site GGCCCAACTTA)"
  ASSAY_RESULT: 0.848
- CHAIN_SEQUENCE: "CTATATCCATGGACCGGTTTTCCCGGTAATCCGTATTTGTA (site CTATATCCTTA)"
  ASSAY_RESULT: 1.51
- CHAIN_SEQUENCE: "GTCGTTCCATGGACCGGTTTTCCCGGTAATCCGTATTTGGT (site GTTGTTCCTAC)"
  ASSAY_RESULT: 0.00325

Would you mind giving recombinant UMI read abundance (log10) for every sequence in the list below?
1. GGAAGTACATGGACCGGTTTTCCCGGTAATCCGTATTTGAC (site GGAAGTACTGT)
2. TACCTGACATGGACCGGTTTTCCCGGTAATCCGTATTTGCT (site TACATGACTAG)
3. CCCAAAGCATGGACCGGTTTTCCCGGTAATCCGTATTTGAT (site CCGAAAGCTAT)

## Output
1: 2.57; 2: 0; 3: 0
